These data points were gathered from the OPERA property sets (Mansouri et al. 2018).

PROPERTY NAME: logP
Write the value as a bare number.

Reference set (5 entries):
{"COMPOUND": "C=C(C)C1CC=C(C)CC1 (stereo not drawn)", "logP": 4.57}
{"COMPOUND": "Cc1ccc2cc3ccccc3cc2c1", "logP": 5}
{"COMPOUND": "COC(=O)C(C#N)=Cc1ccco1", "logP": 1.65}
{"COMPOUND": "CC1CCc2cc(F)cc3c(=O)c(C(=O)O)cn1c23 (stereo not drawn)", "logP": 1.6}
{"COMPOUND": "CCCC(CCC)=NNC(=N)N", "logP": 1.73}

I am curious: what logP value has been reported for `CC(C)c1cccc(OP(=O)(Oc2ccccc2)Oc2ccccc2)c1` ?
5.31

// repeat for `CCNc1nc(NC(C)C)nc(OC)n1` and report
2.69

Also COC(=O)C1=C(C)NC(C)=C(C(=O)OCCN2CCN(C(c3ccccc3)c3ccccc3)CC2)C1c1cccc([N+](=O)[O-])c1 (stereo not drawn) ?
5.2

Thanks! And `NS(=O)(=O)c1nn2c(=Nc3cccc(Cl)c3)snc2s1` ?
3.5

Also need `CN(C)c1ccc(N=C=S)cc1` , thanks.
3.96
